# STUDY_SYSTEM: Chromo domain-containing protein 1 (Saccharomyces cerevisiae (strain ATCC 204508 / S288c) (Baker's yeast)) (UniProt P32657)
# Sequence (P32657 whole entry, the tested form may be a part): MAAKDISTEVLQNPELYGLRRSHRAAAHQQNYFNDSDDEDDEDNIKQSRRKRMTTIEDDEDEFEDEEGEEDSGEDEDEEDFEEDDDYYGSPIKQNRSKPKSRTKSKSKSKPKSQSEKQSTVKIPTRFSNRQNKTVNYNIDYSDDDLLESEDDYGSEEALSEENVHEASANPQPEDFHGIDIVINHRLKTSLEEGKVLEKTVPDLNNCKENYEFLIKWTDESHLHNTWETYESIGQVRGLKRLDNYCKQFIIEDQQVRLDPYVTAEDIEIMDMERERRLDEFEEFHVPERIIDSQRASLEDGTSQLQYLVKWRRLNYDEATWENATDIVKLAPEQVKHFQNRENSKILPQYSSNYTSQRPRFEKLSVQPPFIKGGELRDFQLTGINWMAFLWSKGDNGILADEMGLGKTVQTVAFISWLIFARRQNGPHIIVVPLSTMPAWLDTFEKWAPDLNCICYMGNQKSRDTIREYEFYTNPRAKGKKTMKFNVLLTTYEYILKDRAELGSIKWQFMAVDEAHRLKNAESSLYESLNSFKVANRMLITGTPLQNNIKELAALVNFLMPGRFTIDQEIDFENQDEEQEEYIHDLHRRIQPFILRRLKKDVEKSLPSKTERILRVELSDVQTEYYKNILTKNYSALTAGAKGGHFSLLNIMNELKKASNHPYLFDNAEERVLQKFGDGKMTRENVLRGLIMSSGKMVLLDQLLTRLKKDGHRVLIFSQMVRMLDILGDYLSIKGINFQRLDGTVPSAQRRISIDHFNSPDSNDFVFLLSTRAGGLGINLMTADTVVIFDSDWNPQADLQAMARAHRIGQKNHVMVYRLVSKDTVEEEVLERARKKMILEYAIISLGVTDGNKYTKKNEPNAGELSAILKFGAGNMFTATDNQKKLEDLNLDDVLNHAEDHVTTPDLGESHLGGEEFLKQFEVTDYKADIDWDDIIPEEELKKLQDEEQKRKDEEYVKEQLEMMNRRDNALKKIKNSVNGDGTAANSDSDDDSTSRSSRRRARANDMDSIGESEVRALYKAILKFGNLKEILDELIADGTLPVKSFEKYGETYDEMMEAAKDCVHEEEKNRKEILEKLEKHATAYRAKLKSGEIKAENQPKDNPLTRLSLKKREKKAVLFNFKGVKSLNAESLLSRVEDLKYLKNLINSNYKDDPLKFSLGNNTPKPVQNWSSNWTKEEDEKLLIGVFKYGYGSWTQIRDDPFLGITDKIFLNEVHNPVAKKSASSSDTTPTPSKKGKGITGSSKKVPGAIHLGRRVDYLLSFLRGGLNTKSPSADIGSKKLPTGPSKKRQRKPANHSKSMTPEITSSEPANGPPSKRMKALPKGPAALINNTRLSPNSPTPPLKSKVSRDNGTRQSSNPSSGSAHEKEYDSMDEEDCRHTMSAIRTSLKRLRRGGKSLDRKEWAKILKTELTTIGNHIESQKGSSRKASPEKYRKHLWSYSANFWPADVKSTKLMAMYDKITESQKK
# TEST_NAME: ScCHD-1 Enzyme Inhibition Assay; also: in the data most compounds retested in dose-response had high values
# Assay type: functional
# Design: scale not given: direction of the effect not stated beside the values
# ASSAY_CONDITIONS: 30 µM
We begin with a simple list: items and their reported Percent Effect.

# MOLECULE, Percent Effect
records = [
    ("Cn1nccc1C1CCN(Cc2csc(-c3ncccn3)n2)CC1", "-7.46%"),
    ("Cc1cc(CN2CCN(C(=O)NCc3ccc(C)s3)CC2)no1", "-5.4%"),
    ("Cc1ccc(CN2CCc3ncnc(-c4cccnc4)c3CC2)o1", "-3.74%"),
    ("Cc1cc(-c2cnc(NCc3cccnc3)nc2C(C)(C)C)on1", "-0.51%"),
    ("O=C(C1CCOCC1)N1C[C@@H]2[C@@H](C1)OCC(=O)N2CC1CC1", "-3.21%"),
    ("COc1ccc(CNCc2ccnc(N3CCOCC3)c2)c(OC)c1", "-4.72%"),
    ("Cc1ccc(C(=O)N2CC[C@@H]3[C@H]2CCC(=O)N3c2ccccc2)o1", "1.89%"),
    ("COc1ccc(CN2C[C@@H]3COC[C@]3(COc3cccnc3)C2)cc1", "-0.593%"),
    ("c1ccc(-c2nc(CN3CCCC3Cn3cncn3)cs2)cc1 (stereo unspecified)", "25.8%"),
    ("Fc1cnc(N2CCn3cc(CNc4ccccn4)nc3C2)nc1", "-2.56%"),
    ("Cn1ccc(C(=O)NC2CCC23CCN(C(=O)N2CCCC2)CC3)c1 (stereo unspecified)", "1.18%"),
]

---

# STUDY_SYSTEM: Proteasome subunit beta (Trypanosoma cruzi)
# TEST_NAME: Trypanosoma cruzi proteasome chymotrypsin-like activity (TcProtChymo) assay. Also: in the data most compounds retested in dose-response had high values.
# Type: functional
# Parameters: scale not given: direction of the effect not stated beside the values
# ASSAY_CONDITIONS: 9.37 µM
Measured Percent Effect of individual entries

# MOLECULE, Percent Effect / %
data = [
    ("OCCC1CN(C2CCC2)CCN1C1CCCC1 (configuration not stated)", 2.28),
    ("Cc1ccc(-c2ncc(C(=O)NCCNc3ncccn3)s2)c(C)c1", 1.8),
    ("COc1ccccc1C1CNC(=O)c2nc(-c3ncc[nH]3)[nH]c2C1 (configuration not stated)", 14.3),
    ("O=C(NCC1CCOC1)c1cc(-c2cccc(Cl)c2)on1 (configuration not stated)", 16.7),
    ("CCN(CC1CCOC1)C(=O)c1ccccc1N1CCOCC1 (configuration not stated)", 4.82),
    ("Cc1noc(Cl)c1CCC(=O)N1CCC(CC(N)=O)CC1", 13.6),
    ("O=C(c1ccc(Br)s1)N1CCN(Cc2ccc(OC(F)(F)F)cc2)CC1", 19),
    ("Cc1cnn(CCNCc2cccnc2)c1", 8.92),
    ("Cc1n[nH]c(C2CN(C(=O)CCc3ccsc3)CCO2)n1 (configuration not stated)", -2.13),
    ("CN1CC(=O)N(c2cccc(F)c2)CC12CCNC2 (configuration not stated)", 10.7),
    ("CC(C)CCc1noc(CN2CCCN(C(=O)c3ccco3)CC2)n1", 3.68),
    ("CS(=O)(=O)N[C@@H]1CCO[C@]2(CCN(C(=O)C3=CCCC3)C2)C1", 23.2),
]

---

# STUDY_SYSTEM: Tyrosyl-tRNA synthetase, putative (Trypanosoma cruzi (strain CL Brener))
# TEST_NAME: Trypanosoma cruzi tyrosyl tRNA synthetase (TcYRS) SOP
# Assay type: functional
# Parameters: scale not given: direction of the effect not stated beside the values
# ASSAY_CONDITIONS: 30 µM
READOUT: Percent Effect (%)

# COMPOUND, ENDPOINT_UNIT, OBSERVED_MEASUREMENT
records = [
    ("Cc1cc(C)cc(C2(C(=O)NC(C)Cn3ccnc3)CC2)c1 (stereo not drawn)", "%", 24.1),
    ("N#CCCN(C(=O)CN1CCCC1Cc1ccccc1)c1ccccc1 (stereo not drawn)", "%", 13.4),
    ("COC(=O)CNC(=O)CSCc1nc(O)c2cc(C(C)C)sc2n1", "%", 5.13),
    ("Cc1cccc(C(=O)NCc2ccnc(N(C)C)c2)n1", "%", -37.6),
    ("COc1cccc(CCNC(=O)CN2CCCC2c2noc(C)n2)c1 (stereo not drawn)", "%", 11),
    ("O=C(C1CCC1)N1CCN(c2snc3ccccc23)CC1", "%", -12.7),
    ("Cc1nn(C)c(Cl)c1C1CCCN1C(=O)c1ccc2nncn2c1 (stereo not drawn)", "%", -6.17),
    ("COc1ccc(CCN2CCCC2Cn2nc(C)nc2C)cc1 (stereo not drawn)", "%", 8.86),
    ("CCOc1cccc2c1OCC(C(=O)NS(=O)(=O)c1ccc(C)s1)=C2", "%", -18.5),
    ("Cc1cnn(CCNCc2ccc(OCc3csc(C)n3)cc2)c1", "%", 11.1),
    ("Cc1c(C(=O)NC(C)C(C)C)nnn1-c1cccc2c1CCN(C)C2 (stereo not drawn)", "%", 0),
    ("CO[C@H]1CN(C(=O)c2ccccn2)[C@@H]2CCCO[C@H]12", "%", 5.13),
    ("COc1ncccc1C(=O)N1CCN(C(=O)Cc2ccccn2)CC1", "%", 20.2),
    ("CNc1cc(CNC(=O)c2ccccn2)nc(-c2ccncc2)n1", "%", 24.7),
    ("Cc1nc(CN2CCC3(CCN(c4ncc(F)cn4)C3)C2=O)cs1 (stereo not drawn)", "%", 11.5),
    ("O=C(NCC1CCOC1)c1cc(-c2cccc(Cl)c2)on1 (stereo not drawn)", "%", 14.6),
    ("CC(NC(=O)NCCCn1cccn1)c1cccnc1 (stereo not drawn)", "%", -6.17),
    ("CN(C)S(=O)(=O)N1CCC(Oc2cnccn2)CC1", "%", 14.1),
    ("CC(C)(C)C(=O)N1CCC2(COCc3cnc(N4CCOCC4)nc32)C1 (stereo not drawn)", "%", 2.56),
    ("COc1cc2nc3n(c(=O)c2cc1OC)CCN(C)CC3", "%", 3.9),
    ("COc1c(CNCc2ccc(C(=O)N(C)C)cc2)c(C)nn1C", "%", 7.59),
    ("Cc1cc(C[C@@H]2CCC[C@H]2NCc2ccccc2C(F)(F)F)on1", "%", 9.09),
    ("O=C(c1ccc(Cl)o1)N1CCCN(Cc2cscn2)CC1", "%", 14.1),
    ("Cc1cc(CN2CCC(CNC(=O)c3ccc(O)c(Cl)c3)C2)[nH]n1 (stereo not drawn)", "%", 11.1),
    ("COCCN1CCC(CN(CC2CCCO2)C(=O)COC)CC1 (stereo not drawn)", "%", 15.4),
    ("c1ccc(-c2nc(CN3CCCC3Cn3cncn3)cs2)cc1 (stereo not drawn)", "%", 3.8),
    ("c1cnnc(N2CCCC2CNCc2cc[nH]n2)c1 (stereo not drawn)", "%", 7.32),
    ("O=C(NCCN1CCCCC1)c1nc2ccccc2c(=O)[nH]1", "%", 10.3),
    ("O=C(CCc1ccc(=O)[nH]n1)N1CCCC(COc2ccc(F)cc2)C1 (stereo not drawn)", "%", 12.8),
    ("CC(C)COCC(NC(=O)c1cc[nH]n1)c1ccco1 (stereo not drawn)", "%", 18.5),
    ("C=C(Cl)CN1CCC(C(=O)c2cc(F)ccc2F)CC1", "%", 4.88),
    ("c1cnnc(N2CCCC(NCc3ccc(-n4cccn4)cc3)C2)c1 (stereo not drawn)", "%", 7.06),
    ("COCC(O)CNC(=O)c1coc(COc2ccc3sc(C)nc3c2)n1 (stereo not drawn)", "%", 15),
    ("CCOCCCn1c(NC(=O)c2cnn(C)c2)nc2ccccc21", "%", 14.6),
    ("Cc1ncc2c(n1)CN(Cc1noc(C3CC3)n1)CC2", "%", 19.5),
    ("CN(C)C(=O)NC1COC2(CCN(Cc3nccn3C)CC2)C1 (stereo not drawn)", "%", 6.41),
    ("Cc1ccc2c(c1)CN(C(=O)C1CCCCC1)C(CN(C)C)CO2 (stereo not drawn)", "%", 9.09),
    ("CCCNC(=O)CNC(=O)CCc1ccccc1Br", "%", 7.69),
    ("COc1ccc(CN2C[C@@H]3COC[C@]3(COc3cccnc3)C2)cc1", "%", 6.1),
    ("Cc1ccoc1C(=O)N1C[C@H]2CCC[C@@]2(COCc2ccncc2)C1", "%", 11.5),
    ("COc1cc(OC)c(C2Nc3cc(Cl)ccc3C3=NCCN32)cc1OC (stereo not drawn)", "%", 14.1),
    ("CCc1nc(CC(=O)N2CCn3c(nnc3C(F)(F)F)C2)cs1", "%", 0),
    ("Cc1cccc(N2CCN(CCNC(=O)c3ccnn3C)CC2)c1", "%", 11),
    ("COCC(=O)N1CCCC1c1cc(Nc2nnc(C)s2)nc(C)n1 (stereo not drawn)", "%", 8.97),
    ("CCS(=O)(=O)N1CCC2(CCCN(Cc3cc(OC)ccc3F)C2)C1 (stereo not drawn)", "%", 7.69),
    ("Cc1[nH]c(=O)[nH]c(=O)c1CN1CCCC(CCc2c(F)cccc2F)C1 (stereo not drawn)", "%", -9.76),
    ("COCC(=O)NCc1cc(=O)n2c(n1)CN(CC1CCOC1)CCC2 (stereo not drawn)", "%", 12.8),
    ("CCn1ccc(C(=O)NCCCN2CCOCC2)n1", "%", 13.6),
]

Reference for the values: ChEMBL document CHEMBL3988442
